Target: human PD-L1 (human) (UniProt Q9NZQ7)
Sequence (Q9NZQ7 19-290): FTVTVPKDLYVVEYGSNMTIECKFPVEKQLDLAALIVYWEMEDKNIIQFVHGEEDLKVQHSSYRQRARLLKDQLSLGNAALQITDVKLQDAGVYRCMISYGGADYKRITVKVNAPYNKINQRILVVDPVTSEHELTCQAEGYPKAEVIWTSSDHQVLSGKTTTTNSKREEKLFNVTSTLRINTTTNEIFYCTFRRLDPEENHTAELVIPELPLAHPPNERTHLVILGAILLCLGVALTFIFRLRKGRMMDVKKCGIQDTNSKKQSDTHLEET
Assay: flow cytometry, CHO cells expressing huPD-L1
Documented MFI at 33.3 nM across a set of binders
MEASURED_ENDPOINT: MFI at 33.3 nM (MFI)

binder="variant CD80 IgV-Fc E35D/M47L/A71G/L85M/F92Y (Fc fusion) VIHVTKEVKEVATLSCGHNVSVEELAQTRIYWQKDKKMVLTMMSGDLNIWPEYKNRTIFDITNNLSIVILGLRPSDEGTYECVVMKYEKDAYKREHLAEVTLSVKAD" measured_endpoint="MFI at 33.3 nM" number=46700
binder="variant CD80 IgV-Fc Q33L/E35D/M43V/M47I/A71G (Fc fusion) VIHVTKEVKEVATLSCGHNVSVEELAQTRIYWLKDKKMVLTMVSGDINIWPEYKNRTIFDITNNLSIVILGLRPSDEGTYECVVLKYEKDAFKREHLAEVTLSVKAD" measured_endpoint="MFI at 33.3 nM" number=78000
binder="variant CD80 IgV-Fc E35D/D46V/M47V/N48K/V68M (Fc fusion) VIHVTKEVKEVATLSCGHNVSVEELAQTRIYWQKDKKMVLTMMSGVVKIWPEYKNRTIFDITNNLSIMILALRPSDEGTYECVVLKYEKDAFKREHLAEVTLSVKAD" measured_endpoint="MFI at 33.3 nM" number=25900
binder="variant CD80 IgV-Fc E7D/E35D/M47I/L97Q (Fc fusion) VIHVTKDVKEVATLSCGHNVSVEELAQTRIYWQKDKKMVLTMMSGDINIWPEYKNRTIFDITNNLSIVILALRPSDEGTYECVVLKYEKDAFKREHQAEVTLSVKAD" measured_endpoint="MFI at 33.3 nM" number=14600
